Please go through the items and note down their pIC50.
- Target Or System: human LPAR1 (Homo sapiens)
- Construct: host or cells: TangoEDG2-bla U2OS cells
- Sequence (Q92633 whole entry): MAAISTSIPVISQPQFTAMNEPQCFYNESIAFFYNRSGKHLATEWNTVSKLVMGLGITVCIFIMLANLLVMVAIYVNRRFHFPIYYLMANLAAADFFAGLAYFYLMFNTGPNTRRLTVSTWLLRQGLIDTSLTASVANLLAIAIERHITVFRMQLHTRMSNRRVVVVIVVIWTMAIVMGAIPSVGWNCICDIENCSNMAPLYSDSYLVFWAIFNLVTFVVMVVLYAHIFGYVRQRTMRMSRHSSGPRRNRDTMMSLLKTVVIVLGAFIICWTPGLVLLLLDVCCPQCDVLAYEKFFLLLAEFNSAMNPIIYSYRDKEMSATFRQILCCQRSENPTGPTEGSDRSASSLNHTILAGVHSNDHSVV
- Assay Info: Arrestin assay (Arrestin Reporter EDG2-bla U2OS), inhibition of LPA-stimulated signal
- Format: cell-based
- Stated Conditions: TangoEDG2-bla U2OS cells expressing human LPAR1; 0.25 μM LPA; read-out: Arrestin Reporter EDG2-bla U2OS Human Merged IC50
One number for each entry, as −log10 of the molar value.

Give pIC50 for all compounds that follow.
1. CC(C)c1ccnn1C1(C(=O)Nc2ccc(Cl)cc2OC(F)F)CCN(C[C@@H](C(=O)O)N2CCOCC2)CC1 (single isomer, unassigned) [Compound 150]
2. COc1cnn(C2(C(=O)Nc3ccc(Cl)cc3OC(F)F)CCN(CC3(C(=O)O)CCOCC3)CC2)c1C(C)C [Compound 81]
3. COCC[C@@H](CN1CCC(C(=O)Nc2ccc(Cl)cc2OC(F)F)(n2ncc(F)c2C(C)C)CC1)C(=O)O [Compound 190]
4. CC(C)c1ccnn1C1(C(=O)Nc2ccc(Cl)cc2OC(F)F)CCN(CC(Cn2cccn2)C(=O)O)CC1 (stereo not drawn) [Compound 129]
5. COC[C@H](CN1CCC(C(=O)Nc2ccc(Cl)cc2OC(F)F)(n2ncc(F)c2C(C)C)CC1)C(=O)O (single isomer, unassigned) [Compound 170]
6. CC(C)c1ccnn1C1(C(=O)Nc2ccc(Cl)cc2OC(F)F)CCN(CC2(C(=O)O)C[C@@H](C)O[C@@H](C)C2)CC1 (stereo partly drawn) [Compound 180]

[7.00, 7.37, 7.42, 7.46, 7.48, 7.31]

Give pIC50 for all compounds that follow.
1. CC(C)c1c(F)cnn1C1(C(=O)Nc2ccc(Cl)cc2OC(F)F)CCN([C@H]2C[C@](C)(C(=O)O)C2)CC1 [Compound 212]
2. COC[C@H](CN1CCC(C(=O)Nc2ccc(Cl)cc2OC(F)F)(n2nccc2C(C)C)CC1)C(=O)O [Compound 118]
3. CC(C)c1ccnn1C1(C(=O)Nc2ccc(Cl)cc2OC(F)F)CCN(C[C@H](CC#N)C(=O)O)CC1 (single isomer, unassigned) [Compound 163]

[7.33, 7.68, 7.41]
